# target_or_test_system: Glucose transporter (Leishmania mexicana) (UniProt O61059)
# assay_comment: ST_JUDE_LEISH: Cytotoxicity at 2uM final concentration against transgenic Leishmania Mexicana promastigotes LmGT2 that are glucose transport deficient and complemented with the L. Mexicana glucose transporter 2. Activity is measured by DNA content using SYBR green in vitro
# Format: functional
metric: inhibition (%)
One number for each entry, in %.

O=c1cc(NCCCNCc2cn(S(=O)(=O)c3ccccc3)c3ccccc23)[nH]c2ccccc12 ... -0.88

Please give inhibition, item by item, for the list that follows.
1. Cc1noc(-c2ccc3c(c2)CCN(CCC2CCC(NC(=O)/C=C/c4ccc(F)cc4)CC2)CC3)n1 (stereo not given)
2. COc1ccc(CCNCCCCCCNCCCc2ccc(Cl)cc2)cc1OC
3. Cc1c(C)c2c(c(C)c1O)CC[C@@](C)(C(=O)N1CCC(CCN3CCC(c4c[nH]c5ccccc45)CC3)CC1)O2
4. Cc1ccc(C(O)CNc2ccnc(Nc3cccc(-c4csc(C)n4)c3)n2)cc1 (stereo not given)
5. Nc1ccc(-c2ccc(NC(=O)Nc3ccccc3)cc2)cn1
6. COc1ccc2nccc([C@@H](O)CN3CCC(NCCOc4ccc(F)cc4Cl)CC3)c2c1
7. CN1CCN(c2ccnc3ccc(NC(=O)Nc4ccc5c(c4)CCCC5=O)cc23)CC1
8. Cc1nnc2c(NC(=O)/C=C/c3ccc(OC(F)(F)F)cc3)cc3cc(Cl)ccc3n12

Reply:
1. -0.23
2. 4.39
3. 4.66
4. -1.54
5. 3.08
6. 4.96
7. 1.66
8. 0.55

Please give inhibition, item by item, for the list that follows.
1. CN(C)CCOc1cc(NC(=O)c2ccc(-c3ccc(Cl)cc3Cl)cc2)ccc1-c1ccccc1
2. CCOc1ncccc1CN1CCC(N2CCc3cc(NC(=O)c4cc(C)on4)ccc32)C1 (stereo not given)
3. N=C1NC(c2ccccc2)(c2ccccc2)C(=O)N1CC=Cc1ccccc1
4. Cc1cccnc1CNc1nccc2c(C)c(C)[nH]c12
5. O=C(Nc1ccc(C(F)(F)F)cc1)c1ccc(NCCCN2CCCCCC2)c([N+](=O)[O-])c1
6. Oc1ccc(-c2ccccc2)cc1CN1CCCCCC1

Reply:
1: -0.43; 2: -0.18; 3: 4.83; 4: -0.37; 5: 6.28; 6: 1

Please give inhibition, item by item, for the list that follows.
1. CCOC(=O)c1ccc(NC(=O)Nc2ccc(-c3ccc(-c4nc5cccc(C)c5[nH]4)s3)cc2)cc1
2. O=C(Nc1ccccc1N1CCOCC1)c1ncoc1-c1ccccc1C(F)(F)F
3. Cc1ccc(NC(=O)Nc2ccc(Cn3ncc(N4CCCNCC4)c(Cl)c3=O)cc2)cc1
4. O=C(NC1CCC(CCN2Cc3ccc(Br)cc3C2)CC1)c1cccc(-c2cccnc2)c1 (stereo not given)
5. Cc1cccc2nc(-c3ccc(-c4ccc(NC(=O)Nc5ccc(Cl)cc5)cc4)cc3)[nH]c12

Reply:
1: 0.88; 2: 2.48; 3: 1.32; 4: -1.16; 5: -1.04

---

Give inhibition for every item shown.
# target_or_test_system: Solute carrier family 2, facilitated glucose transporter member 1 (Homo sapiens) (UniProt P11166)
# Sequence (P11166 whole entry): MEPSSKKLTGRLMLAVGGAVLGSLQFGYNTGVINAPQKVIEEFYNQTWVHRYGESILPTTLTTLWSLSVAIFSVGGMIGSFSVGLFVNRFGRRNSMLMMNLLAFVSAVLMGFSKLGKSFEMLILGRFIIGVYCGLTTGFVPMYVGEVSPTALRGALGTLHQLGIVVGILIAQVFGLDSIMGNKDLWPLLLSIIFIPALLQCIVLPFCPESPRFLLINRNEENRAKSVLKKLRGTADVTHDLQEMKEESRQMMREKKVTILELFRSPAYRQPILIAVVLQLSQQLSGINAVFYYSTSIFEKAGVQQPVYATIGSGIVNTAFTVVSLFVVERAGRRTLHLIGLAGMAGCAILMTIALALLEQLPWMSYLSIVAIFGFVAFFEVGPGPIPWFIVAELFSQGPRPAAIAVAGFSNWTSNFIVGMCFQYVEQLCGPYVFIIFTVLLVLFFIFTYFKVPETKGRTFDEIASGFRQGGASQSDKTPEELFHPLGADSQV
# assay_comment: ST_JUDE_LEISH: Cytotoxicity at 2uM final concentration against transgenic Leishmania Mexicana promastigotes LmGLUT1 that are glucose transport deficient and complemented with the human glucose transporter GLUT1. Activity is measured by DNA content using SYBR green in vitro
# Format: functional
Numbers only, in %.

Solved entries (count: 6):
Nc1nc(O)c2cc(CN(C=O)c3ccc(C(=O)N[C@@H](CCC(=O)O)C(=O)O)cc3)ccc2n1 ... 6.36
CCCN1CCN(c2ccc(NS(=O)(=O)c3ccc(C(=O)Nc4ccc(Cl)cc4)cc3)cc2)CC1 ... 0.49
O=C(N[C@@H](Cc1ccccc1)C(=O)NC1CCCCC1)c1ccc(O)c(-c2ccc(Cl)c(Cl)c2)c1 ... -0.99
CC1CN(c2cnn(C/C=C/c3ccc(NC(=O)c4ccc([N+](=O)[O-])cc4)cc3)c(=O)c2Cl)CC(C)N1 (centres undefined) ... -0.1
Cc1cccc(N2CCN(C3CCC(NC(=O)c4cc5ccccc5[nH]4)CC3)CC2)c1C (centres undefined) ... 2.31
CCOc1ccc(-c2nonc2NC(=O)c2ccccc2)cc1OCC ... 4.72

Please give inhibition, item by item, for the list that follows.
1. O=C(Nc1ccc2c(c1)CCNCC2)Nc1ccc2ccccc2c1
2. CCN1CCC(NCc2ccc(-c3ccc(Cl)s3)cc2)CC1
3. CC(=O)Nc1cccc(C(=O)Nc2cccc(-c3cccc(-c4nc5ccccc5[nH]4)c3)c2)c1

Reply:
1: 11.1; 2: -1.87; 3: 16.4
